Test: liver-stage malaria parasite growth inhibition, primary screen, cell-based, HepG2, luciferase luminescence, HepG2 viability (AID 624349)
Measurement setup: P. berghei liver stage in HepG2, luciferase luminescence, concentration not given here; active compounds read low
Doc: threshold 70% (exclusive). Items with parasite load remaining beneath it return t; others return f.

Some solved cases for reference:
[[record]]
compound = "c1cncc(C2=NCCC2)c1"
label_class = "f"

[[record]]
compound = "c1cncc(C2CCCN2)c1 (centres undefined)"
label_class = "f"

[[record]]
compound = "CC[C@@]1(O)C(=O)OCc2c1cc1n(c2=O)Cc2cc3c(O)cccc3nc2-1"
label_class = "t"

[[record]]
compound = "C[C@H]1CN(C2CCC(C#N)(c3ccc(F)cc3)CC2)CC[C@@]1(C(=O)O)c1ccccc1 (some centres undefined)"
label_class = "t"

[[record]]
compound = "C=C[C@]12CN(C)[C@@H]3[C@H]4COC(CC41)[C@]1(C(=O)Nc4ccccc41)[C@@H]32"
label_class = "f"

[[record]]
compound = "COc1ccc2c(c1)C13CCCC[C@@H]1C(C2)N(C)CC3 (some centres undefined)"
label_class = "f"

[[record]]
compound = "CN(C)[C@@H]1C(=O)C(C(N)=O)=C(O)[C@@]2(O)C(=O)C3=C(O)c4c(O)ccc(Cl)c4[C@@](C)(O)C3C[C@@H]12 (some centres undefined)"
label_class = "t"

[[record]]
compound = "COc1cc2c(c(OC)c1OC)-c1ccc(O)c(=O)cc1C(N)CC2 (centres undefined)"
label_class = "t"

[[record]]
compound = "C=C1[C@@H]2CC[C@H]3[C@]4(C)C[C@H](O[C@H]5O[C@H](CO)[C@@H](OS(=O)(=O)O)[C@H](OS(=O)(=O)O)[C@H]5OC(=O)CC(C)C)C[C@@H](C(=O)O)[C@H]4CC[C@]3(C2)[C@H]1O"
label_class = "f"

[[record]]
compound = "CC(C)(C)c1cc(C=C(C#N)C#N)cc(Br)c1O"
label_class = "t"


Task: Say whether its parasite load remaining is strictly beneath 70%. Entry: COc1cc2c(cc1O)C1Cc3ccc(OC)c(O)c3CN1CC2 (centres undefined)
Result: t

Task: C[C@]12CCC(=O)C(O)=C1CC[C@@H]1[C@@H]2CC[C@]2(C)C(=O)CC[C@@H]12 ?
Result: t

Task: CN1C[C@@H](NS(=O)(=O)N(C)C)C[C@@H]2c3cccc4c3c(cn4C)C[C@H]21 ?
Result: t

Task: c1ccc2c3c([nH]c2c1)CNCC3 ?
Result: t

Task: COc1ccc2c(c[n+](C)c3c4cc5c(cc4ccc23)OCO5)c1OC ?
Result: t

Task: CCCCCCCCCOc1ccc2[nH]cc(CCN)c2c1 ?
Result: t

Task: CC[C@@H](C)C(=O)O[C@H]1[C@H](O)[C@H]2[C@@H](CN3C[C@@H](C)CC[C@H]3[C@@]2(C)O)C2C[C@]34O[C@@]5(O)[C@@H](OC(=O)C(C)(O)CC)CC[C@@]3(C)[C@@H]5[C@@H](OC(C)=O)[C@@H](OC(C)=O)[C@H]4[C@@]21O (some centres undefined) ?
Result: f

Task: COc1ccc(C[C@@H]2NC[C@@H](O)[C@@H]2OC(C)=O)cc1 ?
Result: t

Task: C=C[C@H]1CN2CCC1C[C@@H]2[C@@H](O)c1ccnc2ccccc12 (some centres undefined) ?
Result: f

Task: C[C@@H](N)[C@@H](O)c1ccccc1 ?
Result: t

Task: CCC(C)C(=O)O[C@H]1[C@H](O)C2C(CN3CC(C)CCC3[C@@]2(C)O)C2C[C@]34O[C@]5(O)C(OC(=O)C(C)(O)C(C)O)CC[C@@]3(C)C5C(OC(C)=O)[C@@H](OC(C)=O)C4[C@@]21O (some centres undefined) ?
Result: f

Task: CCN1C[C@]2(COC)CC[C@H](O)[C@]34C1[C@H](C[C@H]23)[C@@]1(O)C[C@H](OC)[C@H]2C[C@@H]4[C@@H]1[C@H]2OC(C)=O ?
Result: f
